Each recorded value in this set is attributed to paper PMC6152321.

experimental-target: Recombinant human protein tyrosine phosphatase 1B (PTP1B) (Homo sapiens, UniProt P18031)
Sequence (P18031 1-322 limits assumed): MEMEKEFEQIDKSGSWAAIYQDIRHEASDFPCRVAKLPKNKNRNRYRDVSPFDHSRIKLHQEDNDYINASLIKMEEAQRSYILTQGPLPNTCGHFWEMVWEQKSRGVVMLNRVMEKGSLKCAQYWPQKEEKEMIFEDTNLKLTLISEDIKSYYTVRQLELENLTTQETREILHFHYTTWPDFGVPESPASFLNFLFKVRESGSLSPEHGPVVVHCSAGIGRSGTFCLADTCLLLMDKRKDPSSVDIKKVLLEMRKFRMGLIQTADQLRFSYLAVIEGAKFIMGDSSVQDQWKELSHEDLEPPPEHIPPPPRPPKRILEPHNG
measurement-description: In vitro PTP1B inhibition assay (pNPP hydrolysis, absorbance at 405 nm)
experimental-parameters: isolated compounds; mean ± SD, n = 3
Method: Based on the method described by Tahtah et al., the PTP1B inhibition assay was performed at 25 °C using a two-component buffer, containing 50 mM Tris, 50 mM bis-Tris and 100 mM NaCl, adjusted to pH 7.0 with acetic acid. […] The hydrolysis rate of pNPP to release p-nitrophenol was determined by measuring the absorbance at 405 nm every 30 s for 10 min. […]
reported-metric: IC50 (µM)

Some compounds with recorded IC50:
-- ask Supply measured IC50 of CC1(C)C=Cc2cc(-c3coc4cc(O)cc(O)c4c3=O)ccc2O1 in your reply.
-- reply 22.7

-- ask Supply measured IC50 of CC1(C)C=Cc2c(cc(O)c3c(=O)c(-c4ccc(O)cc4)coc23)O1 in your reply.
-- reply 12.6

-- ask Supply measured IC50 of CC(C)=C[C@@H]1C[C@](C)(/C=C/c2cc(-c3coc4cc(O)cc(O)c4c3=O)ccc2O)Oc2ccc(-c3coc4cc(O)cc(O)c4c3=O)cc21 in your reply.
-- reply 2.5

P = CC1(C)C=Cc2c(cc3occ(-c4ccc(O)cc4)c(=O)c3c2O)O1
Q = CCCCCCCCCCCCCCCC(=O)C1=C(O)C(CO)OC1=O (centres unmarked) [RK682, reference compound]
-- ask // pick min by IC50: P , Q Please respond with the label that marks your chosen entry.
-- reply Q

* * *

experimental-target: Recombinant human protein tyrosine phosphatase 1B (PTP1B) (Homo sapiens)
Sequence (P18031 1-322 limits assumed): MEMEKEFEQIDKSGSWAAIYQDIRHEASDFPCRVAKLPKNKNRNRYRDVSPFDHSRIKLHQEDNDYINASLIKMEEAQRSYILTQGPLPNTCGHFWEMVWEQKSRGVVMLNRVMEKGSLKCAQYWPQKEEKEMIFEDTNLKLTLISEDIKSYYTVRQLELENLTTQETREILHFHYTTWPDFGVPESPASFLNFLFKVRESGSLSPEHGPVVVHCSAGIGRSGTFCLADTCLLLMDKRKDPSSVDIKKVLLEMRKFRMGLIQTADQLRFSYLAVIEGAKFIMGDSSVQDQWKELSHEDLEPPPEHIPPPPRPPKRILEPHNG
measurement-description: Kinetics of PTP1B inhibition (Lineweaver-Burk plots, Michaelis-Menten fit)
experimental-parameters: pNPP 0.125-4.0 mM; mean ± SD, n = 3
Description: Based on the method described by Tahtah et al., the PTP1B inhibition assay was performed at 25 °C using a two-component buffer, containing 50 mM Tris, 50 mM bis-Tris and 100 mM NaCl, adjusted to pH 7.0 with acetic acid. […] The hydrolysis rate of pNPP to release p-nitrophenol was determined by measuring the absorbance at 405 nm every 30 s for 10 min. […] Enzyme kinetics of isolated PTP1B inhibitors was measured in triplicate using the standard assay conditions described above. […]
reported-metric: Ki (µM)

Some compounds with recorded Ki:
-- ask Supply measured Ki of CC1(C)C=Cc2c(cc(O)c3c(=O)c(-c4ccc(O)cc4)coc23)O1 in your reply.
-- reply 7.9

-- ask Supply measured Ki of CC(C)=C[C@@H]1C[C@](C)(/C=C/c2cc(-c3coc4cc(O)cc(O)c4c3=O)ccc2O)Oc2ccc(-c3coc4cc(O)cc(O)c4c3=O)cc21 in your reply.
-- reply 3

1 = CC1(C)C=Cc2c(cc3occ(-c4ccc(O)cc4)c(=O)c3c2O)O1
2 = CC1(C)C=Cc2cc(-c3coc4cc(O)cc(O)c4c3=O)ccc2O1
-- ask // pick min by Ki: 1 , 2 Please respond with the label that marks your chosen entry.
-- reply 1
(1: 14.3 µM, 2: 21.3 µM)
